- TARGET_UNDER_TEST: ZF-CLIP (zif268-CLIP-tag fusion)
- EXPERIMENT_SUMMARY: fluorescence polarization
- SETTINGS: no added NaCl; amino-C6-T (second T of TTTT loop); 40 mM Tris-HCl, 20 mM acetic acid, 12.5 mM MgCl2, 1 mM DTT, 1 uM ZnCl2, 100 nM calf thymus DNA, 0.02% Tween 20, pH 8.0, 25 C, with or without 200 mM NaCl
# Lookup of reported Kd keyed by entry

Known results for sequences:
CGTTCATGACTCATGAGTTTTCTCATGAGTCATGAAC [A488-ODN-AP]
> 1000 nM
CGCGACGCCCACGCGCGTTTTCGCGCGTGGGCGTCGC [A488-ODN-ZF]
8.1 nM

As a next step, examine the sequence that follows.
GET /values?readout=Kd&item= CGCGATGCCACGTAGCGTTTTCGCTACGTGGCATCGC [A488-ODN-AZ]
> 1000 nM

====

- System: AZ-CLIP (AZP4-CLIP-tag fusion) (designed)
- EXPERIMENT_SUMMARY: fluorescence polarization
- SETTINGS: no added NaCl; amino-C6-T (second T of TTTT loop); 40 mM Tris-HCl, 20 mM acetic acid, 12.5 mM MgCl2, 1 mM DTT, 1 uM ZnCl2, 100 nM calf thymus DNA, 0.02% Tween 20, pH 8.0, 25 C, with or without 200 mM NaCl
REPORTED_METRIC: Kd (nM)
Hi! Could you send only the number? It should be in nM, unit omitted.

GET /values?readout=Kd&item= CGCGATGCCACGTAGCGTTTTCGCTACGTGGCATCGC [A488-ODN-AZ]
74
